# SYSTEM: HLA-A2402 (Homo sapiens, UniProt P04439, D101N/D140Y/D185E/E176V/E190D/F33S/G103R/G107R/I119L/I121M/I306V/K335N/L105A/L180Q/L300P/N151K/N90K/Q86E/Q94H/R106L/R138H/R89G/T104I/T345S/V100E/W191G/Y123F)
# METHOD DESCRIPTION: cell-based
# Assay type: binding
# MEASUREMENT SETUP: HLA-A2402 HMy2.CIR cells; competitor peptide 5μM; 24 hours; flow cytometry
Residues, ends and D or L forms follow the SMILES beside them.
OBSERVED PROPERTY: inhibition at 5 µM (%)
The reply should contain only the number, in %.

// inhibition at 5 µM value for CC[C@H](C)[C@H](NC(=O)[C@H](CO)NC(=O)[C@H](Cc1ccc(O)cc1)NC(=O)[C@@H](N)CC(C)C)C(=O)N[C@@H](CC(C)C)C(=O)N[C@@H](CO)C(=O)N1CCC[C@H]1C(=O)N[C@@H](Cc1ccccc1)C(=O)N[C@@H](CC(C)C)C(=O)O [Epitope P19] (H-LYSILSPFL-OH; N-terminus and C-terminus assumed) : 82

// inhibition at 5 µM value for CSCC[C@H](NC(=O)[C@@H](N)CCSC)C(=O)N[C@@H](Cc1c[nH]c2ccccc12)C(=O)N[C@@H](Cc1ccccc1)C(=O)N[C@@H](Cc1c[nH]c2ccccc12)C(=O)NCC(=O)N1CCC[C@H]1C(=O)N[C@@H](CO)C(=O)N[C@@H](CC(C)C)C(=O)O [Epitope P71] (H-MMWFWGPSL-OH; N-terminus and C-terminus assumed) : 50.3

// inhibition at 5 µM value for CC(C)C[C@H](NC(=O)[C@@H](N)Cc1ccccc1)C(=O)N1CCC[C@H]1C(=O)N[C@@H](CO)C(=O)N[C@@H](CC(=O)O)C(=O)N[C@@H](Cc1ccccc1)C(=O)N[C@@H](Cc1ccccc1)C(=O)N1CCC[C@H]1C(=O)N[C@@H](CO)C(=O)O [Epitope P67] (H-FLPSDFFPS-OH; N-terminus and C-terminus assumed) : 2

###

# SYSTEM: HLA-A0207 (Homo sapiens, UniProt P04439, D140Y/D185E/D98H/E176V/E277Q/G131W/G231S/I119V/I121R/I166T/I218V/L300P/L318F/N151K/N90K/P208A/P217A/Q86G/Q94H/R138H/R169H/T345S/Y123C)
# Construct: expressed in transfected cells; host or cells: HMy2.CIR
# METHOD DESCRIPTION: cell-based
# Assay type: binding
# MEASUREMENT SETUP: HLA-A0207 HMy2.CIR cells; competitor peptide 5μM; 24 hours; flow cytometry; read-out: 5μM Inhibition (%)
For each entry below, report its inhibition at 5 µM value.
The reply should contain only the number, in %.

// inhibition at 5 µM value for CC(C)C[C@H](NC(=O)[C@H](C)NC(=O)[C@H](CO)NC(=O)[C@H](C)NC(=O)[C@@H](NC(=O)[C@H](CC(=O)O)NC(=O)[C@H](CC(C)C)NC(=O)[C@@H](N)CC(C)C)[C@@H](C)O)C(=O)N[C@@H](Cc1ccc(O)cc1)C(=O)O [Epitope P111] : 37

// inhibition at 5 µM value for CC[C@H](C)[C@H](NC(=O)CNC(=O)[C@H](CC(C)C)NC(=O)[C@H](CO)NC(=O)[C@H](CC(C)C)NC(=O)[C@H](CC(C)C)NC(=O)[C@@H](N)Cc1ccccc1)C(=O)N[C@@H](Cc1c[nH]cn1)C(=O)N[C@@H](CC(C)C)C(=O)O [Epitope P10] : 27

###

# SYSTEM: HLA-A0201 (Homo sapiens, UniProt P04439, D140Y/D185E/D98H/E176V/E277Q/G131W/G231S/I119V/I121R/I166T/I218V/L300P/L318F/N151K/N90K/P208A/P217A/Q86G/Q94H/R138H/R169H/T345S)
# Construct: expressed in transfected cells; host or cells: HMy2.CIR
# METHOD DESCRIPTION: cell-based
# Type: binding
pIC50: −log10 of the molar value. Residues, ends and D or L forms follow the SMILES beside them.
For each entry below, report its pIC50 value.

// pIC50 value for CC(C)C[C@H](NC(=O)[C@@H](NC(=O)[C@H](CCC(N)=O)NC(=O)[C@H](Cc1c[nH]cn1)NC(=O)[C@H](C)NC(=O)[C@H](CC(N)=O)NC(=O)[C@@H](NC(=O)[C@@H](N)[C@@H](C)O)C(C)C)C(C)C)C(=O)N1CCC[C@H]1C(=O)N[C@@H](CCCCN)C(=O)O [Epitope P48] (H-TVNAHQVLPK-OH; N-terminus and C-terminus assumed) : < 4.82

// pIC50 value for CC(C)C[C@H](NC(=O)[C@H](Cc1ccc(O)cc1)NC(=O)[C@H](CCC(=O)O)NC(=O)[C@H](CC(C)C)NC(=O)[C@@H](NC(=O)[C@@H](NC(=O)[C@@H](N)CCC(=O)O)[C@@H](C)O)C(C)C)C(=O)N[C@H](C(=O)N[C@@H](CO)C(=O)N[C@H](C(=O)O)C(C)C)C(C)C [Epitope P118] (H-ETVLEYLVSV-OH; N-terminus and C-terminus assumed) : < 4.82

// pIC50 value for CC[C@H](C)[C@H](NC(=O)[C@H](CO)NC(=O)[C@H](Cc1ccc(O)cc1)NC(=O)[C@@H](N)CC(C)C)C(=O)N[C@@H](CC(C)C)C(=O)N[C@@H](CO)C(=O)N1CCC[C@H]1C(=O)N[C@@H](Cc1ccccc1)C(=O)N[C@@H](CC(C)C)C(=O)O [Epitope P19] (H-LYSILSPFL-OH; N-terminus and C-terminus assumed) : < 4.82

// pIC50 value for CC[C@H](C)[C@H](NC(=O)[C@H](Cc1c[nH]c2ccccc12)NC(=O)[C@@H](NC(=O)CNC(=O)[C@H](Cc1ccccc1)NC(=O)[C@H](CO)NC(=O)[C@@H](NC(=O)[C@H](CC(C)C)NC(=O)[C@@H](N)Cc1ccc(O)cc1)C(C)C)C(C)C)C(=O)O [Epitope P11] : > 5.30

###

# SYSTEM: HLA-A3001 (Homo sapiens, UniProt P04439, D140H/D185E/E176W/F33S/G80R/H175R/K168Q/R138E/R41S)
# Construct: expressed in transfected cells; host or cells: HMy2.CIR
# METHOD DESCRIPTION: Peptide competitive binding assay, transfected HMy2.CIR cells, reference ASRELK(FITC)VSY
# MEASUREMENT SETUP: HLA-A3001 HMy2.CIR cells; competitor peptide 15μM; 24 hours; flow cytometry
# Method: HMy2.CIR cell line was purchased (Zhongqiao xinzhou Biotech, Shanghai) and maintained in complete IMDM medium with 10% FCS and 1% penicillin/streptomycin. […] The plate was centrifuged at 600 rpm for 5 min at room temperature (RT). […] Finally, cells were resuspended with 150 μL PBS and analyzed with flow cytometry. […] Binding affinity of unlabeled peptide with the indicated HLA-A molecule is assessed by IC50.
Residues, ends and D or L forms follow the SMILES beside them.
OBSERVED PROPERTY: inhibition at 15 µM (%)
The reply should contain only the number, in %.

// inhibition at 15 µM value for CC(C)C[C@H](NC(=O)[C@@H](NC(=O)[C@H](Cc1ccccc1)NC(=O)[C@@H](NC(=O)[C@H](CCCCN)NC(=O)[C@H](CC(C)C)NC(=O)[C@@H](N)CCCNC(=N)N)C(C)C)C(C)C)C(=O)NCC(=O)NCC(=O)O [Epitope P93] (H-RLKVFVLGG-OH; N-terminus and C-terminus assumed) : 24

// inhibition at 15 µM value for CC(C)C[C@H](NC(=O)[C@H](CCC(=O)O)NC(=O)[C@H](CCCNC(=N)N)NC(=O)[C@H](CO)NC(=O)[C@H](C)N)C(=O)N[C@H](C(=O)N[C@H](C(=O)N[C@@H](CO)C(=O)N[C@@H](Cc1ccc(O)cc1)C(=O)O)C(C)C)C(C)C [Epitope P88] (H-ASRELVVSY-OH; N-terminus and C-terminus assumed) : 74.8

// inhibition at 15 µM value for CC(C)C[C@H](NC(=O)[C@H](Cc1ccc(O)cc1)NC(=O)[C@H](CCC(=O)O)NC(=O)[C@H](CC(C)C)NC(=O)[C@@H](NC(=O)[C@@H](NC(=O)[C@@H](N)CCC(=O)O)[C@@H](C)O)C(C)C)C(=O)N[C@H](C(=O)N[C@@H](CO)C(=O)N[C@H](C(=O)O)C(C)C)C(C)C [Epitope P118] (H-ETVLEYLVSV-OH; N-terminus and C-terminus assumed) : 26.5

// inhibition at 15 µM value for CC(C)C[C@H](NC(=O)[C@@H](NC(=O)[C@@H](N)CO)[C@@H](C)O)C(=O)N1CCC[C@H]1C(=O)N[C@@H](CCC(=O)O)C(=O)N[C@H](C(=O)N[C@H](C(=O)N[C@H](C(=O)N[C@H](C(=O)N[C@@H](CCCNC(=N)N)C(=O)O)C(C)C)C(C)C)[C@@H](C)O)[C@@H](C)O [Epitope P42] : 4.25

// inhibition at 15 µM value for CC[C@H](C)[C@H](NC(=O)[C@H](CC(N)=O)NC(=O)[C@H](C)NC(=O)CNC(=O)[C@H](CO)NC(=O)[C@H](CCCNC(=N)N)NC(=O)[C@H](CO)NC(=O)[C@@H](N)CCCNC(=N)N)C(=O)N[C@@H](CC(C)C)C(=O)O [Epitope P90] (H-RSRSGANIL-OH; N-terminus and C-terminus assumed) : 70

// inhibition at 15 µM value for CC[C@H](C)[C@H](NC(=O)[C@H](CC(C)C)NC(=O)[C@H](CCCCN)NC(=O)[C@H](C)NC(=O)CNC(=O)[C@H](CO)NC(=O)[C@H](CCCNC(=N)N)NC(=O)[C@H](CO)NC(=O)[C@@H](N)CCCNC(=N)N)C(=O)O [Epitope P89] (H-RSRSGAKLI-OH; N-terminus and C-terminus assumed) : 71.8

// inhibition at 15 µM value for CC[C@H](C)[C@H](NC(=O)[C@H](CCC(N)=O)NC(=O)[C@H](Cc1c[nH]cn1)NC(=O)[C@H](C)NC(=O)[C@H](CC(N)=O)NC(=O)[C@@H](NC(=O)[C@@H](N)[C@@H](C)O)C(C)C)C(=O)N[C@@H](CC(C)C)C(=O)N1CCC[C@H]1C(=O)N[C@@H](CCCCN)C(=O)O [Epitope P17] (H-TVNAHQILPK-OH; N-terminus and C-terminus assumed) : 46.5
